MEASURED_ON: HLA-DR DRB3*0101 (DR52) (Homo sapiens, UniProt P01903+P79483)
ASSAY_METHOD_TEXT: biochemical
Type: binding
No end group written: not given here.
REPORTED_PROPERTY: IC50 (µM)
Provide the reading as a plain figure in µM.

SEQUENCE_CODE | UNITS_TEXT | IC50
EMLQNIFAIFRQDSS | µM | 0.726
YGAVVNLRKTVVNFP | µM | 51.5
NGVLQGITSWGSEPC | µM | 8.04
SAAPLRTITADTFRK [SAAPLRT1TADTFRK] | µM | 2.11
GRLEYTLKDRRNFDI | µM | 9.9
GSHLVEALYLVTGER | µM | 18.2

Task: Quickly give me recorded IC50 for LQLHVDKAVSGLRSL
Result: 1.04

Task: Quickly give me recorded IC50 for QTQKLLWQLNGRLEY
Result: 6.58

Task: Quickly give me recorded IC50 for QHLCGSHLVEALYLV
Result: 14.8

Task: Quickly give me recorded IC50 for LYFVKVDVTGAYDTI
Result: 0.016

Task: Quickly give me recorded IC50 for VCGERGFFYTPKTRR
Result: 17.4

Task: Quickly give me recorded IC50 for NSRLLQERGVAYINA
Result: 3.37

Task: Quickly give me recorded IC50 for SNLELLRICLLLIQS
Result: 17

Task: Quickly give me recorded IC50 for LFRVYSNFLRGKLKL
Result: 8.98

Task: Quickly give me recorded IC50 for RTGQIFKQTYSKFDT
Result: 14.7

Task: Quickly give me recorded IC50 for RNFYVINRLTGYLRN
Result: 0.689

Task: Quickly give me recorded IC50 for QLAFDTYQEFEQNPQ
Result: 0.738

Task: Quickly give me recorded IC50 for AVTIYEMLQNIFAIF
Result: 2.83

All values here come from patent US20060079453A1.
